Measured MIC, listed per entry.
- Tested on: Candida albicans
- Protocol text: Minimal inhibitory concentration against Candida albicans
- Type: functional
Measured parameter: MIC

CCCCCCCCCCOC(=O)C[C@H](C[N+](C)(C)C)OC(=O)CC(C)C.[Cl-] :: 3.12 µg/mL
CCCCCCCCCCC(=O)O[C@H](CC(=O)OCCC(F)(F)C(F)(F)C(F)(F)C(F)(F)C(F)(F)C(F)(F)C(F)(F)C(F)(F)F)C[N+](C)(C)C.[Cl-] :: > 100 µg/mL
CCCCCC(CCCCC)OC(=O)C[C@H](C[N+](C)(C)C)OC(=O)CC(C)C.[Cl-] :: 25 µg/mL
CCCCCCCCCCOC(=O)C[C@H](C[N+](C)(C)C)OC(=O)CCCCCC.[Cl-] :: 3.12 µg/mL
CCCCCCCOC(=O)C[C@H](C[N+](C)(C)C)OC(=O)CCCCCCCCCBr.[Cl-] :: 3.12 µg/mL
CCCCCCCCCCCCOC(=O)C[C@H](C[N+](C)(C)C)OC(=O)CCCCCC.[Cl-] :: 3.12 µg/mL
CCCCCCCCOC(=O)C[C@H](C[N+](C)(C)C)OC(=O)CC(C)C.[Cl-] :: > 100 µg/mL
CCCCCCCCCCC(=O)O[C@H](CC(=O)OCCOc1ccccc1)C[N+](C)(C)C.[Cl-] :: 3.12 µg/mL
CCCCCCCCCCCC(=O)O[C@H](CC(=O)OCCC(F)(F)C(F)(F)C(F)(F)C(F)(F)C(F)(F)C(F)(F)F)C[N+](C)(C)C.[Cl-] :: > 100 µg/mL
C=CCCCCCCCCCOC(=O)C[C@H](C[N+](C)(C)C)OC(=O)CC(C)C.[Cl-] :: 6.25 µg/mL
CCCCCCCCOC(=O)C[C@H](C[N+](C)(C)C)OC(=O)CCCCCCCC.[Cl-] :: 3.12 µg/mL
CCCCCCCCCCC(=O)O[C@H](CC(=O)OCCCCCCC(F)(F)C(F)(F)C(F)(F)C(F)(F)F)C[N+](C)(C)C.[Cl-] :: 12.5 µg/mL
CCCCCCCCCCCOC(=O)C[C@H](C[N+](C)(C)C)OC(=O)CCCCCC.[Cl-] :: 3.12 µg/mL
CCCCCCCCCCCCCCCCOC(=O)C[C@@H](O)C[N+](C)(C)C.[Cl-] :: 6.25 µg/mL
CCCCCCCOC(=O)C[C@H](C[N+](C)(C)C)OC(=O)CCOc1ccccc1.[Cl-] :: > 100 µg/mL
CC(C)CC(=O)O[C@H](CC(=O)OCCCCCCC(F)(F)C(F)(F)C(F)(F)C(F)(F)F)C[N+](C)(C)C.[Cl-] :: 12.5 µg/mL
CCCCCCCCCCCC(=O)O[C@H](CC(=O)OCCOc1ccccc1)C[N+](C)(C)C.[Cl-] :: 3.12 µg/mL

---

- Tested on: Staphylococcus aureus
- Protocol text: Minimal inhibitory concentration against Staphylococcus aureus
- Format: functional
Measured parameter: MIC

CCCCCCCCOC(=O)C[C@H](C[N+](C)(C)C)OC(=O)CC(C)C.[Cl-] :: 50 µg/mL
CCCCCCCCCCCOC(=O)C[C@H](C[N+](C)(C)C)OC(=O)CCCBr.[Cl-] :: 6.25 µg/mL
CCCCCCCOC(=O)C[C@H](C[N+](C)(C)C)OC(=O)CCOc1ccccc1.[Cl-] :: > 100 µg/mL
CCCCCCCCCCCCCOC(=O)C[C@H](C[N+](C)(C)C)OC(=O)CCCCCCC.[Cl-] :: 6.25 µg/mL
CCCCCCCCCCCCOC(=O)C[C@H](C[N+](C)(C)C)OC(=O)CC(C)C.[Cl-] :: 3.12 µg/mL
CCCCCCCCCCCCCCCCCC(=O)O[C@H](CC(=O)O)C[N+](C)(C)C.[Cl-] :: > 100 µg/mL
CC(C)CC(=O)O[C@H](CC(=O)OCCCCCCCCCCCBr)C[N+](C)(C)C.[Cl-] :: 12.5 µg/mL
C=CCCCCCCCCCOC(=O)C[C@H](C[N+](C)(C)C)OC(=O)CC(C)C.[Cl-] :: 12.5 µg/mL
CCCCCCCCCCCC(=O)O[C@H](CC(=O)OCCC(F)(F)C(F)(F)C(F)(F)C(F)(F)C(F)(F)C(F)(F)F)C[N+](C)(C)C.[Cl-] :: > 100 µg/mL
CCCCCCCCOC(=O)C[C@H](C[N+](C)(C)C)OC(=O)CCCCCCCC.[Cl-] :: 3.12 µg/mL
CCCCCCCOC(=O)C[C@H](C[N+](C)(C)C)OC(=O)CCCCCCCCCBr.[Cl-] :: 3.12 µg/mL
CCCCCCCCCCCCCCCCOC(=O)C[C@H](C[N+](C)(C)C)OC(=O)CC(C)C.[Cl-] :: 6.25 µg/mL
CC(C)CC(=O)O[C@H](CC(=O)OCCCCCCC(F)(F)C(F)(F)C(F)(F)C(F)(F)F)C[N+](C)(C)C.[Cl-] :: 12.5 µg/mL
CCCCCCCCCCCOC(=O)C[C@H](C[N+](C)(C)C)OC(=O)CCCCCC.[Cl-] :: 3.12 µg/mL
CCCCCCCCCCCCCOC(=O)C[C@H](C[N+](C)(C)C)OC(=O)CCCCCCCC.[Cl-] :: 12.5 µg/mL
CCCCCCCCCCCCCOC(=O)C[C@H](C[N+](C)(C)C)OC(=O)C(C)CCCC.[Cl-] (some centres undefined) :: 6.25 µg/mL
CCCCCCCCCCCCCOC(=O)C[C@H](C[N+](C)(C)C)OC(=O)CCCCCCCCCC.[Cl-] :: 50 µg/mL
CCCCCCCCCCOC(=O)C[C@H](C[N+](C)(C)C)OC(=O)CC(C)C.[Cl-] :: 12.5 µg/mL
CCCCCCCCCCCOC(=O)C[C@H](C[N+](C)(C)C)OC(=O)CCCCCCC.[Cl-] :: 3.12 µg/mL
CCCCCCCCCCCCOC(=O)C[C@H](C[N+](C)(C)C)OC(=O)CCCCCC.[Cl-] :: 3.12 µg/mL
CCCCCCCCCCCOC(=O)C[C@H](C[N+](C)(C)C)OC(=O)CC(C)C.[Cl-] :: 6.25 µg/mL
CCCCCCCCCCOC(=O)C[C@H](C[N+](C)(C)C)OC(=O)CCCCCC.[Cl-] :: 3.12 µg/mL
CCCCCCCCCCCCOC(=O)C[C@H](C[N+](C)(C)C)OC(=O)C(C)C.[Cl-] :: 6.25 µg/mL
CCCCCCCCCCCOC(=O)C[C@H](C[N+](C)(C)C)OC(=O)CCC(C)C.[Cl-] :: 3.12 µg/mL
CCCCCCCCCCC(=O)O[C@H](CC(=O)OCCCCCCC(F)(F)C(F)(F)C(F)(F)C(F)(F)F)C[N+](C)(C)C.[Cl-] :: 12.5 µg/mL
CCCCCCCCCCCCCCCCOC(=O)C[C@@H](O)C[N+](C)(C)C.[Cl-] :: 6.25 µg/mL
CCCCCCCCCCCOC(=O)C[C@H](C[N+](C)(C)C)OC(=O)CCCCCCCCCC.[Cl-] :: > 100 µg/mL
CCCCCCCCCCCCCOC(=O)C[C@H](C[N+](C)(C)C)OC(=O)CC(C)C.[Cl-] :: 3.12 µg/mL
CCCCCCCCCCC(=O)O[C@H](CC(=O)OCCC(F)(F)C(F)(F)C(F)(F)C(F)(F)C(F)(F)C(F)(F)C(F)(F)C(F)(F)F)C[N+](C)(C)C.[Cl-] :: > 100 µg/mL
CCCCCCCCCCCCCOC(=O)C[C@H](C[N+](C)(C)C)OC(=O)CCCCCC.[Cl-] :: 6.25 µg/mL
CCCCCCCCCCCOC(=O)C[C@@H](O)C[N+](C)(C)C.[Cl-] :: 12.5 µg/mL
CCCCCCCCCCCC(=O)O[C@H](CC(=O)OCCOc1ccccc1)C[N+](C)(C)C.[Cl-] :: 6.25 µg/mL
CCCCCC(CCCCC)OC(=O)C[C@H](C[N+](C)(C)C)OC(=O)CC(C)C.[Cl-] :: 12.5 µg/mL
CCCCCCCCCCC(=O)O[C@H](CC(=O)OCCOc1ccccc1)C[N+](C)(C)C.[Cl-] :: 6.25 µg/mL
